- Test target: T1, BCMA-Fc, a recombinant protein where the extracellular domain of human BCMA protein is linked to human Fc (human, UniProt Q02223 1-54)
- T1 construct: extracellular domain; Negative control in panning and ELISA; also called negative control-Fc
- T1 sequence (looked up): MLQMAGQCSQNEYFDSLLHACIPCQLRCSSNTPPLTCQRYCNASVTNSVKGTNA
- Method: ELISA, wells coated with BCMA-Fc (negative control), monoclonal scFv supernatant, anti-HA HRP detection, OD (450-650nm)

{"columns": ["Binder", "binding result"],
 "data": [
  ["anti-ROR1 monoclonal phage antibody D2B12 (soluble scFv) (scFv, V domains shown, Tested as soluble scFv in culture supernatant, detected through an HA tag) VH: EVQLLESGGGLVQPGGSLRLSCAASGFTFSNYDMSWVRQAPGKGLEWVSSISPSSGSSIYYADSVKGRFTISRDNSKNTLYLQMNSLRAEDTAVYYCAKAPGWCQAPSCYYDNAMDVWGQGTLVTVSS VL: QSVLTQPPSASGTPGQRVTISCSGSSSNIGNNDVSWYQQLPGTAPKLLIYDDSQRPSGVPDRFSGSKSGTSASLAISGLRSEDEADYYCGAWDDSLSGYVFGGGTKLTVLG", "no binding"],
  ["anti-ROR1 monoclonal phage antibody DG6 (soluble scFv) (scFv, V domains shown, Tested as soluble scFv in culture supernatant, detected through an HA tag) VH: EVQLLESGGGLVQPGGSLRLSCAASGFTFSDYDMSWVRQAPGKGLEWVSVISPDGGSIYYADSVKGRFTISRDNSKNTLYLQMNSLRAEDTAVYYCARDVVECNMNPCSYDNAMDVWGQGTLVTVSS VL: QSVLTQPPSASGTPGQRVTISCSGSSSNIGSNYVSWYQQLPGTAPKLLIYDDSHRPSGVPDRFSGSKSGTSASLAISGLRSEDEADYYCGAWDDSLSGYVFGGGTKLTVLG", "no binding"],
  ["anti-ROR1 monoclonal phage antibody AB4 (soluble scFv) (scFv, V domains shown, Tested as soluble scFv in culture supernatant, detected through an HA tag) VH: EVQLLESGGGLVQPGGSLRLSCAASGFTFSSYDMSWVRQAPGKGLEWVSWISPDSGSIYYADSVKGRFTISRDNSKNTLYLQMNSLRAEDTAVYYCARPTGRFDYWGQGTLVTVSS VL: QSVLTQPPSASGTPGQRVTISCSGSSSNIGNNNVNWYQQLPGTAPKLLIYYDNKRPSGVPDRFSGSKSGTSASLAISGLRSEDEADYYCGTWDASLSGYVFGGGTKLTVLG", "no binding"]
]}
